Values from patent US9326950B2

Experiment: Multi-angle light scattering, molecular weight of peptide aggregates and degree of aggregation
Assay type: physicochemical
Conditions: 0.1 mg/ml peptide
Where no end group is shown, it is not given here.
For each of the substances below, state its N, degree of aggregation (molecules per particle).
Give bare numbers, in molecules per particle.

Some solved entries appear below for comparison.
[[record]]
substance = "SEQ ID NO: 1-PEG27: TM peptide of SEQ ID NO: 1 with hydrophilic oligomer PEG27 added; CXCR4 peptide nanoparticles (LLFVITLPFWAVDAVANWYFGNDD; not fully specified; also: PEG27 added)"
numericreadout = 176

[[record]]
substance = "SEQ ID NO: 8-PEG27: deletion mutant lacking the five N-terminal amino acid residues of SEQ ID NO: 1, with PEG27 (TLPFWAVDAVANWYFGNDD; not fully specified; also: PEG27 added)"
numericreadout = 9


Now, please, on to the next substance.
Answer with the recorded N, degree of aggregation (molecules per particle) for the substance listed here: LLFVITLPFWAVDAVANWYFGNDD [SEQ ID NO: 1]
2478

----------
For each of the substances below, state its N, degree of aggregation (molecules per particle).
Experiment: Multi-angle light scattering, molecular weight of peptide aggregates and degree of aggregation
Assay type: physicochemical
Details: 0.4 mg/ml peptide
Where no end group is shown, it is not given here.
Numbers only, in molecules per particle.

[[record]]
substance = "SEQ ID NO: 1-GGGGG: TM peptide of SEQ ID NO: 1 with polyglycine tail GGGGG (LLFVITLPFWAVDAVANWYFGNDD; C-terminal GGGGG tail)"
numericreadout = 55


Now, please, on to the next substance.
Answer with the recorded N, degree of aggregation (molecules per particle) for the substance listed here: SEQ ID NO: 1-PEG27: TM peptide of SEQ ID NO: 1 with hydrophilic oligomer PEG27 added; CXCR4 peptide nanoparticles (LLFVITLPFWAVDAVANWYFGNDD; not fully specified; also: PEG27 added)
90

----------
Assay: Multi-angle light scattering, molecular weight of peptide aggregates and degree of aggregation
Type: physicochemical
Details: aggregate MW at 0.2 mg/ml peptide, 0.1 M Tris-HCl pH 7.2
Experimental: To determine the influence of hydrophilic tail length on nanoparticle aggregation, the degree of aggregation was determined by multi-angle light scattering for TM peptides with the amino acid sequences of SEQ ID NO: 1; SEQ ID NO: 1-PEG11; SEQ ID NO: 1-PEG27; SEQ ID NO: 1-PEG38; and SEQ ID NO: 1-GGGGG. The peptides were dissolved in DMSO and diluted with 0.1 M Tris-HCl buffer (pH 7.2) to provide 0.4 mg/ml peptide solutions. This was used for further dilutions. […]
Where no end group is shown, it is not given here.
For each of the substances below, state its MW (g/mol).

Some solved entries appear below for comparison.
[[record]]
substance = "SEQ ID NO: 8-PEG27: deletion mutant lacking the five N-terminal amino acid residues of SEQ ID NO: 1, with PEG27 (TLPFWAVDAVANWYFGNDD; not fully specified; also: PEG27 added)"
experimentalreadout = "MW (g/mol)"
result = "32,660 ± 6,730 g/mol"

[[record]]
substance = "SEQ ID NO: 1-GGGGG: TM peptide of SEQ ID NO: 1 with polyglycine tail GGGGG (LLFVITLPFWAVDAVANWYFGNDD; C-terminal GGGGG tail)"
experimentalreadout = "MW (g/mol)"
result = "865,600 ± 2,700 g/mol"

[[record]]
substance = "SEQ ID NO: 1-PEG27: TM peptide of SEQ ID NO: 1 with hydrophilic oligomer PEG27 added; CXCR4 peptide nanoparticles (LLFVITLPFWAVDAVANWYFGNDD; not fully specified; also: PEG27 added)"
experimentalreadout = "MW (g/mol)"
result = "682,000 ± 105,000 g/mol"

[[record]]
substance = "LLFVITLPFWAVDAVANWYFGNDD [SEQ ID NO: 1]"
experimentalreadout = "MW (g/mol)"
result = "6,952,000 ± 22,000 g/mol"


Respectfully, I request MW (g/mol) for each entry included below.
1. SEQ ID NO: 1-PEG11: TM peptide of SEQ ID NO: 1 with hydrophilic oligomer PEG11 added (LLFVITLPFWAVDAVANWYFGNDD; not fully specified; also: PEG11 added)
2. SEQ ID NO: 1-PEG38: TM peptide of SEQ ID NO: 1 with PEG38, obtained by sequential coupling of PEG11 and PEG27 (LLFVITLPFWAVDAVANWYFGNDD; also: PEG38 added (PEG11 + PEG27))

["463,800 ± 6,800 g/mol", "90,950 ± 9,210 g/mol"]
